- subjectOfTest: T1, recombinant human domain 1-3His6 of the cation-independent mannose-6-phosphate receptor (human, UniProt P11717 41-467)
- T1 construct: Biotinylated (NHS-PEG4-biotin) for BLI; Glycosylated; also called hDom1-3His6; hCI-M6PRD1-D3
- testMethodNotes: in-tandem competitive BLI, biotinylated hDom1-3His6 on SA sensors, purified VHH at 400 nM
readoutKind: binding result

Inquiry: Read off the recorded binding result for humanized VHH8 variant VHH8 h2 (VHH, made in E. coli) VHH: DVQLVESGGGLVQPGGSLRLSCAASGRTFNTYNWGWFRQAPGKEREFVAAIRWSSSKTSYADSVKGRFTISRDNSKNTVYLQMNSLRPEDTAVYYCAASIVDFTTNPSHFGSWGQGTLVTVSS
Reply text: binds

Inquiry: Read off the recorded binding result for humanized VHH7 variant VHH7 h1 (VHH, made in E. coli) VHH: EVQLVESGGGLVQPGGSLRLSCAASGIIFSDNRMDWYRQAPGKQREWVATLASYGWKTYADSVKGRFTISRDNSKNTVYLQMNSLRPEDTAVYYCKASSPVLNDIWGQGTLVTVSS
Reply text: binds
